IC50 values for the binders below.
- tested target: T1, human-derived G protein-coupled receptor protein TGR23-2 (human TGR23-2) (human, UniProt Q6W5P4 1-371)
- T1 construct: Expressed in CHO dhfr- cells (pAKKO-TGR23-2)
- T1 chain: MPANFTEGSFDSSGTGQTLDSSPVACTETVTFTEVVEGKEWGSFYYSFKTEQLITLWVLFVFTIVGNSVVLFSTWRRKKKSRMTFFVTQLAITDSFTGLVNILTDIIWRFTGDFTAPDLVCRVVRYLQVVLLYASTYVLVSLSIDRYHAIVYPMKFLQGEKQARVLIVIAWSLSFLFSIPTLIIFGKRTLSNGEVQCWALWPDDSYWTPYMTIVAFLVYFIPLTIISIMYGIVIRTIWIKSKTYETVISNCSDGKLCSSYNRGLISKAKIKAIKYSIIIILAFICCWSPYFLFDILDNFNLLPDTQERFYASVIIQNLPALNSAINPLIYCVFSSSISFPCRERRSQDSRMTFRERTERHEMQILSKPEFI
- procedure details: competition with [Nle10,125I-Tyr15] human TGR23-2 ligand (1-20); membrane fraction of TGR23-2 expressing CHO cells at 1 ug/ml; filter assay
reported metric: IC50 (nM)

>>> print(df.to_string())
                                     binder  unit_info  meas_value
0  SFRNGVGSGAKKTSFRRAKQ [mouse TGR23-2 ligand (1-20)]         nM      0.0245
1  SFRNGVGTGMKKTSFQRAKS (also called human TGR23 ligand (1-20)) [human TGR23-2 ligand (1-20)]         nM       0.105
2  SFRNGVGSGVKKTSFRRA [rat TGR23-2 ligand (1-18)]         nM      0.0928
